- Measured On: DYRK1B (Homo sapiens)
- Assay Explanation: Kinase-GLO luminescent kinase assay
- Assay type: biochemical
- Set-up: made in house; host or cells: E. coli
- Condition Info: 1 μM compound; means of at least 3 measurements
Reported values of Residual activity (% of control) DYRK1B for individual entries

# annotated cases, reported Residual activity (% of control) DYRK1B shown
compound=COc1ccc2c(c1)[nH]c1c(C)nccc12 measured="11 % of control"
compound=C#CCn1c2cc(OC)ccc2c2ccnc(Cl)c21 measured="35 % of control"

Please supply the value of reported Residual activity (% of control) DYRK1B for the item `Cc1nccc2c3ccc(Cl)c(Cl)c3n(CC#N)c12`
60 % of control

Answer with the recorded Residual activity (% of control) DYRK1B for the compound listed here: `COc1ccc2c3ccnc(C)c3n(CC#N)c2c1`
7 % of control

Answer with the recorded Residual activity (% of control) DYRK1B of COc1ccc2c3ccnc(C)c3n(C(C)C#N)c2c1 (centres unmarked) only.
14 % of control

---

- Assay Explanation: Cell viability XTT assay
- Format: cell-based
- Condition Info: human, HeLa, 1 μM, read-out: Viability of treated cells relative to untreated control
Metric Name: viability at 3 days, 1 µM (%)
Field format: number, assumed %, no unit text.

Please report viability at 3 days, 1 µM for the following compound: CN[C@@H]1C[C@H]2O[C@@](C)([C@@H]1OC)n1c3ccccc3c3c4c(c5c6ccccc6n2c5c31)C(=O)NC4 [Staurosporine, reference compound]
8

---

Attribute: viability at 3 days, 3 µM
- Assay Explanation: Cell viability XTT assay
- Format: cell-based
- Condition Info: rat, PC12 cells, PC12, 3 μM, read-out: Viability of treated cells relative to untreated control
Express the result in % but write the number alone.

Known viability at 3 days, 3 µM results, listed for orientation:
compound=COc1ccc2c3ccnc(C)c3n(CC#N)c2c1 measured=88
compound=COc1ccc2c3ccnc(Cl)c3n(CC#N)c2c1 measured=100
compound=COc1ccc2c(c1)[nH]c1c(Cl)nccc12 measured=90

// next item, viability at 3 days, 3 µM requested
Please look at this compound and report its viability at 3 days, 3 µM: COc1ccc2c3ccnc(C)c3n(C(C)C#N)c2c1 (stereo not shown)
88

---

Entries and their measured viability at 3 days, 3 µM follow.
- Assay Explanation: Cell viability XTT assay
- Format: cell-based
- Condition Info: human, SH-SY5Y cells, 3 μM, read-out: Viability of treated cells relative to untreated control
The answer is to be given in %; state only the numeric part.

molecule="COc1ccc2c3ccnc(C)c3n(C(C)C#N)c2c1 (stereo not shown) [AnnH43]" measured=68
molecule="COc1ccc2c3ccnc(Cl)c3n(CC#N)c2c1 [AnnH75]" measured=73
molecule="COc1ccc2c(c1)[nH]c1c(Cl)nccc12 [AnnH24]" measured=66

Query molecule follows.
Recall and state the measured viability at 3 days, 3 µM for COc1ccc2c3ccnc(C)c3n(CC#N)c2c1 [AnnH31] .
88

---

viability at 3 days, 1 µM: recorded values
- Assay Explanation: Cell viability XTT assay
- Type: cell-based
- Condition Info: human, HeLa cells, 1 μM, read-out: Viability of treated cells relative to untreated control
Your answer is read as %, so omit the unit and give the number.

For the molecule COc1ccc2c3ccnc(Cl)c3n(CC#N)c2c1 [AnnH75] , give its reported viability at 3 days, 1 µM.
100

Name the recorded viability at 3 days, 1 µM of the molecule listed here: COc1ccc2c(c1)[nH]c1c(Cl)nccc12 [AnnH24]
97

Identify viability at 3 days, 1 µM associated with the molecule COc1ccc2c3ccnc(C)c3n(CC#N)c2c1 [AnnH31]
93

Kindly indicate its recorded viability at 3 days, 1 µM. Item: COc1ccc2c3ccnc(C)c3n(C(C)C#N)c2c1 (stereo not shown) [AnnH43]
91

---

- Measured On: DYRK2 (Homo sapiens)
- Construct: purchased ProQinase (Freiburg, Germany)
- Sequence (Q92630 1-601): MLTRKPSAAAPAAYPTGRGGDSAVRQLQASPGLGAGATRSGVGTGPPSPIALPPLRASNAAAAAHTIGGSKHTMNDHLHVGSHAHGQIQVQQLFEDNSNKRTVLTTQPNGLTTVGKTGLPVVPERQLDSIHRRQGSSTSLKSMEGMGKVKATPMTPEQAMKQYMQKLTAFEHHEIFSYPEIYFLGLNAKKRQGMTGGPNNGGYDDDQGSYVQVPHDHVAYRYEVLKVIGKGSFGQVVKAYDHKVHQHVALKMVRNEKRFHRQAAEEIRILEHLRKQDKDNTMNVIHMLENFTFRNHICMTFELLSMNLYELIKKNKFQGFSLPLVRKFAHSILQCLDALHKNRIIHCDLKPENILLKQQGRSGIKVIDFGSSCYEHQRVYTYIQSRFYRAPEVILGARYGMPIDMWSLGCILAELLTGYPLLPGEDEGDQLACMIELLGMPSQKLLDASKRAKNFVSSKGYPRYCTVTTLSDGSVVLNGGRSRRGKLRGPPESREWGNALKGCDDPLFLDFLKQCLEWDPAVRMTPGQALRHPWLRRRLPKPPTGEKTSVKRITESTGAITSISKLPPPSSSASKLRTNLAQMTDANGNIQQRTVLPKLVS
- Assay Explanation: Kinase-GLO luminescent kinase assay
- Type: biochemical
- Condition Info: 1 μM compound; means of at least 3 measurements
Readings of Residual activity (% of control) DYRK2 for the listed molecules

molecule=C#CCn1c2c(C)nccc2c2ccc(Cl)c(Cl)c21 measured="100 % of control"
molecule="COc1ccc2c3ccnc(C)c3n(C(C)C#N)c2c1 (stereo not shown)" measured="56 % of control"
molecule=COc1ccc2c(c1)[nH]c1c(C)nccc12 measured="92 % of control"
molecule=COc1ccc2c(c1)[nH]c1c(/C=C/c3ccccc3)nccc12 measured="51 % of control"
molecule=COc1ccc2c(c1)[nH]c1c(Cl)nccc12 measured="63 % of control"

State, in one line, measured Residual activity (% of control) DYRK2 of `COc1ccc2c3ccnc(C)c3n(CC#N)c2c1`
59 % of control

Report Residual activity (% of control) DYRK2, nothing else, for this molecule: Nc1ncnc2c1c(I)cn2[C@@H]1O[C@H](CO)[C@@H](O)[C@H]1O [IoT, 5-iodotubercidin, reference compound]
10 % of control

Input `C#CCn1c2cc(OC)ccc2c2ccnc(Cl)c21` , output reported Residual activity (% of control) DYRK2.
85 % of control

Please give measured Residual activity (% of control) DYRK2 of the following entry: `Cc1nccc2c3ccc(Cl)c(Cl)c3n(CC#N)c12`
61 % of control

Return Residual activity (% of control) DYRK2 for the following molecule: `COc1ccc2c3ccnc(C)c3n(CCC#N)c2c1`
81 % of control

---

- Assay Explanation: Cell viability XTT assay
- Assay type: cell-based
- Condition Info: human, SH-SY5Y cells, 1 μM, read-out: Viability of treated cells relative to untreated control
Listing of entries alongside the reported viability at 3 days, 1 µM.
Give the quantity in %, number only.

// below: answered compounds
compound="COc1ccc2c3ccnc(C)c3n(CC#N)c2c1 [AnnH31]" measured=81
compound="COc1ccc2c3ccnc(Cl)c3n(CC#N)c2c1 [AnnH75]" measured=89
compound="COc1ccc2c(c1)[nH]c1c(Cl)nccc12 [AnnH24]" measured=75

Dear colleague, please send me the reported viability at 3 days, 1 µM for COc1ccc2c3ccnc(C)c3n(C(C)C#N)c2c1 (stereo not shown) [AnnH43] when you can.
61

---

Reported Residual activity (% of control) DYRK1A by item:
- Measured On: DYRK1A (Homo sapiens, UniProt Q13627)
- Construct: purchased ProQinase (Freiburg, Germany)
- Assay Explanation: Kinase-GLO luminescent kinase assay
- Type: biochemical
- Condition Info: 1 μM compound; means of at least 3 measurements

Answered examples (3):
compound="COc1ccc2c3ccnc(C)c3n(C(C)C#N)c2c1 (stereo not shown)" measured_on="DYRK1A (Homo sapiens, UniProt Q13627)" measured="5 % of control"
compound=COc1ccc2c(c1)[nH]c1c(/C=C/c3ccccc3)nccc12 measured_on="DYRK1A (Homo sapiens, UniProt Q13627)" measured="27 % of control"
compound=COc1ccc2c(c1)[nH]c1c(C)nccc12 measured_on="DYRK1A (Homo sapiens, UniProt Q13627)" measured="27 % of control"

Next up:
Report Residual activity (% of control) DYRK1A, nothing else, for this compound: `COc1ccc2c3ccnc(C)c3n(CC#N)c2c1`
8 % of control

---

- Measured On: DYRK1A (Homo sapiens)
- Construct: purchased ProQinase (Freiburg, Germany)
- Assay Explanation: Kinase-GLO luminescent kinase assay
- Assay type: biochemical
- Condition Info: 1 μM compound; means of at least 3 measurements
Each entry below carries its reported Residual activity (% of control) DYRK1A.

Some entries whose results are on file:
compound=COc1ccc2c3ccnc(C)c3n(CCC#N)c2c1 measured="22 % of control"
compound=Cc1nccc2c3ccc(Cl)c(Cl)c3n(CC#N)c12 measured="17 % of control"
compound=C#CCn1c2c(C)nccc2c2ccc(Cl)c(Cl)c21 measured="17 % of control"

Look up and report Residual activity (% of control) DYRK1A, with DYRK1A (Homo sapiens) as system, for Nc1ncnc2c1c(I)cn2[C@@H]1O[C@H](CO)[C@@H](O)[C@H]1O [IoT, 5-iodotubercidin, reference compound]
13 % of control

# lookup: DYRK1A (Homo sapiens) Residual activity (% of control) DYRK1A, key = `C#CCn1c2cc(OC)ccc2c2ccnc(Cl)c21`
12 % of control
